- Tested on: K-562 leukemia
- Assay protocol: NCI tumour cell line growth inhibition, 48 h
Readout type: TGI

Observe how each entry below is paired with its result.
{"Compound": "CSc1nc(-c2ccccc2)c2c(n1)-c1ccccc1CC2", "TGI": "> 100 µM"}
{"Compound": "CCCCCCCC(=O)N/N=C/c1ccc(Sc2nccn2C)c([N+](=O)[O-])c1", "TGI": "82.6 µM"}
{"Compound": "O=C(Nc1ccc2c(c1)oc(=O)c1ccccc12)C(Cl)Cl", "TGI": "> 100 µM"}

Query: Please report the recorded TGI for CCCCCc1c(C)[nH]c(/C=C2\N=C(c3ccc[nH]3)C=C2Oc2ccc(Cl)cc2)c1C .
Response: > 100 µM

Query: Please report the recorded TGI for CCN1C(=O)C(=Cc2ccc(-c3ccccc3)cc2)C(=O)N(CC)C1=S .
Response: > 100 µM

Query: Please report the recorded TGI for C=C(C)[C@@H]1CC[C@@]2(C)[C@H]1[C@H]1CCC3[C@@]4(C)CC[C@H](O)C(C)(C)[C@@H]4CC[C@@]3(C)[C@]1(C)C[C@@H]2O (stereo partly drawn) .
Response: 47.7 µM

Query: Please report the recorded TGI for CCCCCCCCCCCCC(=O)[O-].CCCCCCCCCCCCC(=O)[O-].CCCCCCCCCCCCC(=O)[O-].CCCCCCCCCCCCC(=O)[O-].[Mo+2].[Mo+2] .
Response: 79.8 µM

Query: Please report the recorded TGI for Cc1cccc(Nc2cn(CCOc3ccccc3)c(=O)n(CCOc3ccccc3)c2=O)c1 .
Response: > 100 µM

====

Measured TGI accompanies every entry in the list below.
- Tested on: MDA-MB-231 breast
- Assay protocol: NCI tumour cell line growth inhibition, 48 h
Response body: numeric value in µM, unit text excluded.

{"Molecule": "Cc1cn2c(/C=N/N/C(N)=N\\N)c(-c3ccc(Cl)c([N+](=O)[O-])c3)nc2s1", "Readout type": "TGI", "Measurement": 1.87}
{"Molecule": "Oc1cc(Cl)ccc1Oc1ccc(Cl)cc1Cl", "Readout type": "TGI", "Measurement": 4.95}
{"Molecule": "COC(=O)[C@@H]1CCCN1C(=O)[C@@H]1CCCN1C(=O)[C@@H](Cc1c[nH]c2ccccc12)NC(=S)Nc1cc(C(F)(F)F)cc(C(F)(F)F)c1", "Readout type": "TGI", "Measurement": 10.8}
{"Molecule": "Fc1ccc(Nc2nc(NCCNc3ccnc4cc(Cl)ccc34)nc(N3CCOCC3)n2)cc1", "Readout type": "TGI", "Measurement": 11.1}
{"Molecule": "CCCCCCCCCCCC1N=C(N)NC(CCCO)=C1C(=O)OC (configuration not stated)", "Readout type": "TGI", "Measurement": 6.6}
{"Molecule": "CC[CH2][Pb]([CH2]CC)([CH2]CC)[NH]S(=O)(=O)c1ccc(C)cc1", "Readout type": "TGI", "Measurement": 0.27}

Continue with the molecule presented below.
Query: Please report the recorded TGI for COc1cc(/C=C/C2=NN(c3cccc(S(=O)(=O)O)c3)C3(C2)C(Cl)C(=O)N3c2nc3ccccc3s2)ccc1O (configuration not stated) .
Response: 47.1

====

- Test system: OVCAR-4 ovarian
- Assay protocol: NCI tumour cell line growth inhibition, 48 h
Measured TGI accompanies every entry in the list below.

{"Molecule": "Cc1c2cnccc2nc2[nH]c3ccncc3c12", "TGI": "> 100 µM"}
{"Molecule": "CCO[C@@H]1C2C=CC(C2)[C@H]1[N+](=O)[O-] (stereo not given in full)", "TGI": "> 100 µM"}
{"Molecule": "O=C1C(=O)N(C2CCCCC2)C(=S)N1C1CCCCC1", "TGI": "> 100 µM"}

Query: Please report the recorded TGI for Nc1nc(OCc2ccccc2)nc2[nH]ncc12 .
Response: 63.4 µM

Query: Please report the recorded TGI for CCOC(=O)c1cnn(-c2ccnc3c(C(F)(F)F)cccc23)c1N .
Response: > 100 µM
